Quick list: AC50 per entry.
Tested on: TFEB
Experiment: TFEB nuclear translocation assay, HeLa wt cells
Type: cell-based
Measurement Setup: Homo sapiens, HeLa, 2 h, 2 hrs compound treatment, Table 1 does not say HeLa wt or TRPML1 KO

Form: molecule = COCC1(C)CCN(c2ccccc2NS(=O)(=O)Cc2ccc(C)cc2F)CC1 [Compound A-709] ; AC50 = 2010 to 8000 nM

Form: molecule = CCOCC1(C)CCN(c2ccccc2NS(=O)(=O)c2ccc(S(=O)(=O)N(C)C)cc2)CC1 [Compound A-719] ; AC50 = ≤ 2000 nM

Form: molecule = C[C@@H]1CN(CC2CCN(c3c(NS(=O)(=O)c4ccc(S(=O)(=O)N(C)C)cc4)cccc3C3CC3)CC2)C[C@H](C)O1 [Compound A-863] ; AC50 = ≤ 2000 nM

Others:
Form: molecule = COC(=O)N1CCN(c2ccccc2NS(=O)(=O)c2ccc(S(=O)(=O)N(C)C)cc2)CC1 [Compound A-309] ; AC50 = 2010 to 8000 nM

----------
Tested on: TFEB
Experiment: TFEB nuclear translocation assay, HeLa wt cells
Type: cell-based
Measurement Setup: Homo sapiens, HeLa, 2 h, 2 hrs compound treatment, Table 1 does not say HeLa wt or TRPML1 KO
Quick list: AC50 per entry.

// known answers, use as guide
Form: compound = CN(C)S(=O)(=O)c1ccc(S(=O)(=O)Nc2ccccc2N2CCN(C(=O)C3(C)CCCO3)CC2)cc1 (stereo not drawn) ; AC50 = 2.01 to 8 µM

Form: compound = CC(c1cccc(F)c1N1CCC(CN2C[C@@H](C)O[C@H](C)C2)CC1)S(=O)(=O)c1ccc(S(=O)(=O)N(C)C)cc1 (single isomer, unassigned) [Compound A-885] ; AC50 = ≤ 2 µM

Form: compound = "CN(C)S(=O)(=O)c1ccc(S(=O)(=O)N2C(=O)N(C3CCN(c4ccc(Cl)cc4F)CC3)C(=O)C2(C)C)cc1" ; AC50 = ≥ 10 µM

Others:
Form: compound = "COC1(CN2C[C@@H](C)O[C@@H](C)C2)CCN(c2c(F)cccc2NS(=O)(=O)c2ccc(S(=O)(=O)N(C)C)cc2)CC1" ; AC50 = ≤ 2 µM

Form: compound = "CN(C)S(=O)(=O)c1ccc(S(=O)(=O)Nc2ccccc2N2CCC(CO)(c3ccc(F)cc3F)CC2)cc1" ; AC50 = 2.01 to 8 µM

Form: compound = "CN(C)S(=O)(=O)c1ccc(S(=O)(=O)Nc2nn(C)cc2C2CCN(c3ccccc3F)CC2)cc1" ; AC50 = 2.01 to 8 µM

----------
Test system: TFEB
Experiment: TFEB nuclear translocation assay, HeLa wt cells
Assay type: cell-based
Measurement Setup: Homo sapiens, HeLa, 2 h, 2 hrs compound treatment, Table 1 does not say HeLa wt or TRPML1 KO
Measured Quantity: AC50

// known answers, use as guide
Form: compound = COC(C)C1(C)CCN(c2ccccc2NS(=O)(=O)c2ccc(S(=O)(=O)N(C)C)cc2)CC1 (stereo not drawn) [Compound A-741] ; AC50 = ≤ 2000 nM

Form: compound = C[C@@H]1CN(CC2CCN(c3c(F)cccc3NS(=O)(=O)c3ccc(S(=O)(=O)N(C)C)cc3)CC2)[C@@H](C)CO1 [Compound A-865] ; AC50 = ≤ 2000 nM

Form: compound = CN1CCC2(CCN(c3ccccc3NS(=O)(=O)c3ccc(S(C)(=O)=O)cc3)CC2)c2ccccc21 [Compound A-492] ; AC50 = ≤ 2000 nM

Form: compound = O=S(=O)(Nc1cccc(Cl)c1N1CCC(c2c(F)cccc2F)CC1)c1ccc2c(c1)CCC2 [Compound A-298] ; AC50 = ≤ 2000 nM

Form: compound = CC(c1cccc(F)c1N1CCC(C)(C(F)F)CC1)S(=O)(=O)c1ccc(C(F)F)cc1 (single isomer, unassigned) [Compound A-963] ; AC50 = 2010 to 8000 nM

Consider the record given below.
Form: compound = O=S(=O)(Nc1ccccc1N1CCN(c2ccc(Cl)cc2F)CC1)N1CCOCC1 [Compound A-43] ; AC50 = ≤ 2000 nM

----------
Quick list: AC50 per entry.
Tested on: TFEB
Experiment: TFEB nuclear translocation assay, HeLa wt cells
Type: cell-based
Measurement Setup: Homo sapiens, HeLa, 2 h, 2 hrs compound treatment, Table 1 does not say HeLa wt or TRPML1 KO

// known answers, use as guide
Record CN(C)S(=O)(=O)c1ccc(S(=O)(=O)Nc2ccccc2N2CCC(C3CCCCO3)CC2)cc1 (stereo not shown) [Compound A-435] / TFEB, AC50 recorded as ≤ 2000 nM

Record CN1CC2(CCN(c3ccccc3N(C)S(=O)(=O)c3ccc(S(=O)(=O)N(C)C)cc3)CC2)c2ccc(F)cc21 [Compound A-243] / TFEB, AC50 recorded as ≤ 2000 nM

Record O=S(=O)(Cc1ccc(F)c(Cl)c1)Nc1cccc(Cl)c1N1CCOCC1 [Compound A-368] / TFEB, AC50 recorded as 2010 to 8000 nM

Record COCC1(C)CCN(c2ccccc2NS(=O)(=O)Cc2ccccc2Cl)CC1 [Compound A-601] / TFEB, AC50 recorded as 2010 to 8000 nM

Record COc1ccc(S(=O)(=O)Nc2ccccc2N2CC(Oc3ccc(F)cc3F)C2)cc1 [Compound A-200] / TFEB, AC50 recorded as 2010 to 8000 nM

Record CN(C)S(=O)(=O)c1ccc(S(=O)(=O)c2ccccc2N2CCC(c3ccc(Cl)cc3F)CC2)cc1 [Compound A-156] / TFEB, AC50 recorded as 2010 to 8000 nM

Record CC(=O)N(C)C1(c2ccc(Cl)cc2F)CCN(c2ccccc2NS(=O)(=O)c2ccc(S(=O)(=O)N(C)C)cc2)CC1 [Compound A-172] / TFEB, AC50 recorded as 2010 to 8000 nM

Record COC(=O)C(C)(C)c1ccc(S(=O)(=O)Nc2ccccc2N2CCC3(CC2)COC(C)(C)C3)cc1 [Compound A-710] / TFEB, AC50 recorded as 8010 to 9990 nM

Others:
Record CN(C)S(=N)(=O)c1ccc(S(=O)(=O)Nc2cccc(F)c2N2CCC(C3(N4CCOCC4)CC3)CC2)cc1 (stereo not shown) [Compound A-858] / TFEB, AC50 recorded as ≤ 2000 nM

Record CN1Cc2cc(F)ccc2C12CCN(c1ccccc1NS(=O)(=O)c1ccc(S(=O)(=O)N(C)C)cc1)CC2 [Compound A-310, formic acid] / TFEB, AC50 recorded as ≤ 2000 nM

Record COc1ccc(S(=O)(=O)Nc2ccccc2N2CCC(O)(c3ccc(F)cn3)CC2)cc1 [Compound A-409] / TFEB, AC50 recorded as ≥ 10000 nM

Record CN(C)S(=O)(=O)c1ccc(S(=O)(=O)Nc2cccc(N3CCC(c4ccc(Cl)cc4F)CC3)n2)cc1 [Compound A-134] / TFEB, AC50 recorded as ≥ 10000 nM

Record CN(C)S(=O)(=O)c1ccc(S(=O)(=O)Nc2ccccc2N2CC=C(c3ccc(Cl)cc3F)CC2)cc1 [Compound A-32] / TFEB, AC50 recorded as ≤ 2000 nM

Record CN(C)S(=O)(=O)c1ccc(S(=O)(=O)Nc2ccccc2N2CCC(F)(CCO)CC2)cc1 [Compound A-722] / TFEB, AC50 recorded as ≥ 10000 nM

Record CC(c1cccc(F)c1N1CCC(CN2CC3CCC(C2)C3(F)F)CC1)S(=O)(=O)c1ccc(S(=O)(=O)N(C)C)cc1 (stereo not shown) [Compound A-985] / TFEB, AC50 recorded as ≤ 2000 nM

Record CN(C)S(=O)(=O)c1ccc(S(=O)(=O)Nc2nc(N3CCN(c4ccc(Cl)cc4F)CC3)n(C)n2)cc1 [Compound A-59] / TFEB, AC50 recorded as ≥ 10000 nM

Record O=C1COCCN1c1c(Cl)cccc1NS(=O)(=O)c1ccc2c(c1)CCC2 [Compound A-297] / TFEB, AC50 recorded as ≥ 10000 nM

Record CN(C)S(=O)(=O)c1ccc(S(=O)(=O)Nc2nn(C)cc2C2CCN(c3ccc(Cl)cc3F)CC2)cc1 [Compound A-55] / TFEB, AC50 recorded as ≤ 2000 nM

Record CN(C)S(=O)(=O)c1ccc(S(=O)(=O)Nc2cccc(F)c2N2CCC(CN3C4CCC3COC4)CC2)cc1 [Compound A-790] / TFEB, AC50 recorded as ≤ 2000 nM

Record COCC1(C)CCN(c2c(NS(=O)(=O)c3ccc(S(=O)(=O)N(C)C)cc3)ccc3nccn23)CC1 [Compound A-813] / TFEB, AC50 recorded as ≥ 10000 nM

Record Cc1ccc(N2CCOCC2)c(NS(=O)(=O)c2ccc3c(c2)CCC3)c1 [Compound A-520] / TFEB, AC50 recorded as ≤ 2000 nM

Record CC(Nc1ccccc1N1CCC(c2ccc(Cl)cc2F)CC1)c1ccc(S(=O)(=O)N(C)C)cc1 (stereo not shown) [Compound A-443] / TFEB, AC50 recorded as 2010 to 8000 nM

Record C[C@@H]1CN(CC2CCN(c3c(F)cccc3NS(=O)(=O)c3ccc(S(=O)(=O)N(C)C)cc3)CC2)C[C@@H](C)O1 [Compound A-818] / TFEB, AC50 recorded as ≤ 2000 nM

Record CN(C)S(=O)(=O)c1ccc(S(=O)(=O)Nc2ccccc2N2CCN(C(=O)C3CC34CC4)CC2)cc1 (stereo not shown) [Compound A-462] / TFEB, AC50 recorded as 2010 to 8000 nM

Record C[C@H]1COC[C@H](C)N1CC1CCN(c2c(F)cccc2NS(=O)(=O)c2ccc(S(=N)(=O)N(C)C)cc2)CC1 (single isomer, unassigned) [Compound A-833] / TFEB, AC50 recorded as ≤ 2000 nM

Record CN1CC(c2ccccc2)C2(CCN(c3ccccc3NS(=O)(=O)c3ccc(S(=O)(=O)N(C)C)cc3)CC2)C1=O (stereo not shown) [Compound A-318] / TFEB, AC50 recorded as 2010 to 8000 nM

Record CC1(C)Cc2cc(S(=O)(=O)Nc3cccc(F)c3N3CCC(CN4C5COCC4C5)CC3)ccc2O1 [Compound A-875] / TFEB, AC50 recorded as ≥ 10000 nM

Record CN(C)S(=O)(=O)c1ccc(S(=O)(=O)Nc2ccccc2N2CCC3(CC2)COC(C)(C)C3)c(F)c1 [Compound A-653] / TFEB, AC50 recorded as 2010 to 8000 nM

Values compiled from patent US20230104936A1.
